- Test system: boar sperm
- Assay Protocol: Determination of boar sperm motility and progressive motility by CASA (Example 1)
- Format: cell-based, Duroc boar
- Condition Info: 0.2 h, 12 min at 37° C., activation-% relative to DMSO-only control, n=6, read-out: absolute EC50 progressive motility
Assay Endpoint: EC50 (µM)

O=C(CSc1nnc(-c2c[nH]c3ccccc23)o1)Nc1ccc2c(c1)OCO2; 11.2

Where do the numbers come from? From patent US12616193B2.
